- TESTED ON: C-C chemokine receptor type 5 (Homo sapiens)
- Sequence (P51681 whole entry): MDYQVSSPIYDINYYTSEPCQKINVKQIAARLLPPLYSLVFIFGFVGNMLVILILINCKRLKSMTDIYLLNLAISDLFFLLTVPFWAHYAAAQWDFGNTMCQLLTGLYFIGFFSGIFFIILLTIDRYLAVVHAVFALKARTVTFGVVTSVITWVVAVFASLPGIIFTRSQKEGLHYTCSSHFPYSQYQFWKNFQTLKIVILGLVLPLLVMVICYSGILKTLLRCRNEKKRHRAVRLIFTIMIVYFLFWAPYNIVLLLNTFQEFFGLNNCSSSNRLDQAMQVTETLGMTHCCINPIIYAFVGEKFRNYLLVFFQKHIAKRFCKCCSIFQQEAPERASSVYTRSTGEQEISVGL
- ASSAY: Binding affinity against C-C chemokine receptor type 5 stably expressed in Chinese hamster ovary (CHO) cells using [125I]-MIP-1 alpha as the radioligand
- Assay type: cell-based
pIC50: −log10 of the molar value.
Label t when pIC50 is at or above 8; anything below gets f.

Assess whether reported pIC50 for C=CCN(C(=O)OCc1ccccc1)C1CCN(CCC(C)(Cn2cnc3ccccc32)c2ccccc2)CC1 (stereo not drawn) sits at 8 or higher.
f

Assess whether reported pIC50 for C=CCN(C(=O)OCc1ccccc1)C1CCN(CCC(Cn2c(CC)nc3ccccc32)c2ccccc2)CC1 (stereo not drawn) sits at 8 or higher.
f

Assess whether reported pIC50 for C=CCN(C(=O)OCc1ccc([N+](=O)[O-])cc1)C1CCN(CCC(Cn2c(CC)nc3ccccc32)c2ccccc2)CC1 (stereo not drawn) sits at 8 or higher.
f

Assess whether reported pIC50 for C=CCN(C(=O)OCc1ccccc1)C1CCN(CCC(Cn2cnc3ccccc32)c2ccccc2)CC1 (stereo not drawn) sits at 8 or higher.
f

Assess whether reported pIC50 for C=CCN(C(=O)OCc1ccc([N+](=O)[O-])cc1)C1CCN(CCC(Cn2nnnc2-c2ccccc2)c2ccccc2)CC1 (stereo not drawn) sits at 8 or higher.
f

Assess whether reported pIC50 for C=CCN(C(=O)OCc1ccc([N+](=O)[O-])cc1)C1CCN(CCC(Cn2cnc3ccccc32)c2ccccc2)CC1 (stereo not drawn) sits at 8 or higher.
t
